- target or system: human kisspeptin receptor (Homo sapiens (Human), UniProt Q969F8)
- Sequence (Q969F8 whole entry): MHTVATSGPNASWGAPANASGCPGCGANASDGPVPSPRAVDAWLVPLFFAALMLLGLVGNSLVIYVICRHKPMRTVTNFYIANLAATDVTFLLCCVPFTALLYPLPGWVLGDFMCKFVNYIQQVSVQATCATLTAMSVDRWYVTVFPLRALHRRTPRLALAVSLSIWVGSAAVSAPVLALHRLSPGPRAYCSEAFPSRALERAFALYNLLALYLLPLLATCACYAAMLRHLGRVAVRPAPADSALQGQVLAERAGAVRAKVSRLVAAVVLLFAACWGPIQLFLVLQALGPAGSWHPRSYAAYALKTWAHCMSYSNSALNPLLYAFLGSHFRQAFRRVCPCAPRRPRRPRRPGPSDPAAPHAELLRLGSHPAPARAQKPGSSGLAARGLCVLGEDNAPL
- test summary: Human KISS1R binding assay (membrane competition binding)
- measurement context: 90 min at room temperature; competition with 0.2 nM [125I]-metastin (45-54); Flp-In T-Rex 293 kisspeptin membranes; metal complexes nonradioactive Ga, In, Lu; read-out: hKiSSR Binding Ki (90 min)
Square brackets hold non-standard residues; d marks the D form. Peptide text beside a SMILES is read from it. * marks the point of attachment. DOTA = O=C(O)CN1CCN(CC(=O)O)CCN(CC(=O)*)CCN(CC(=O)O)CC1; Api(1-amidino) = N=C(N)N1CCC(N)(C(=O)O)CC1; Hydrocinnamoyl(4-Me) = Cc1ccc(CCC(=O)*)cc1; Api = NC1(C(=O)O)CCNCC1; PEG2 = NCCOCCOCCC(=O)O; Ahx = NCCCCCC(=O)O; azaGly = NNC(=O)O; Sar = CNCC(=O)O
Measured Ki, listed per entry.

molecule="CC(C)C[C@H](NC(=O)NNC(=O)[C@H](Cc1ccccc1)NC(=O)[C@@H](NC(=O)[C@H](CC(N)=O)NC(=O)[C@@H](Cc1c[nH]c2ccccc12)NC(=O)[C@@H](Cc1ccc(O)cc1)NC(=O)CCCCCNC(=O)CN1CCN(CC(=O)O)CCN(CC(=O)O)CCN(CC(=O)O)CC1)[C@@H](C)O)C(=O)NC1(C(=O)N[C@@H](Cc2c[nH]c3ccccc23)C(N)=O)CCN(C(=N)N)CC1 [Compound 6] ({DOTA-Ahx}-[dY][dW]NTF[azaGly]L[Api(1-amidino)]W-NH2)" assay_endpoint=Ki meas_value="< 0.01 µM"

What does the record list as Ki for CNCC(=O)N1CCC(NC(=O)[C@H](CC(C)C)NC(=O)NNC(=O)[C@H](Cc2ccccc2)NC(=O)[C@@H](NC(=O)[C@H](CC(N)=O)NC(=O)[C@@H](CCCCNC(=O)CN2CCN(CC(=O)O)CCN(CC(=O)O)CCN(CC(=O)O)CC2)NC(=O)[C@@H](Cc2ccc(O)cc2)NC(=O)CCOCCOCCNC(=O)CCc2ccc(C)cc2)[C@@H](C)O)(C(=O)N[C@H](Cc2c[nH]c3ccccc23)C(N)=O)CC1 [Compound 357] ({Hydrocinnamoyl(4-Me)-PEG2}-[dY][dK](DOTA)NTF[azaGly]L[Api](Sar)[dW]-NH2) ?
< 0.01 µM

###

- target or system: human kisspeptin receptor (Homo sapiens (Human), UniProt Q969F8)
- test summary: Human KISS1R binding assay (membrane competition binding)
- measurement context: 90 min at room temperature; competition with 0.2 nM [125I]-metastin (45-54); Flp-In T-Rex 293 kisspeptin membranes; metal complexes nonradioactive Ga, In, Lu; read-out: hKiSSR Binding Ki (90 min)
pKi: −log10 of the molar value. Numbered stars: 1 amine (or outer) side, 2 acyl side, 3 side chain; on linkers, the order of the positions; unused ones are H or OH. Square brackets hold non-standard residues; d marks the D form. Peptide text beside a SMILES is read from it. * marks the point of attachment. DOTA = O=C(O)CN1CCN(CC(=O)O)CCN(CC(=O)*)CCN(CC(=O)O)CC1; Gly(N-(3-F-4-Me-benzyl)) = Cc1ccc(CNCC(=O)*)cc1F; X4 = O=C(c1ccc(-c2ccccc2OCCCN[*:1])cc1)[*:2]; Api(1-amidino) = N=C(N)N1CCC(N)(C(=O)O)CC1; 2Nal = N[C@@H](Cc1ccc2ccccc2c1)C(=O)O; 4Pal = N[C@@H](Cc1ccncc1)C(=O)O; 4Amb = NCc1ccc(C(=O)O)cc1; Api = NC1(C(=O)O)CCNCC1; Ahx = NCCCCCC(=O)O; azaGly = NNC(=O)O
Parameter pKi: see the listing below.

compound="CC(C)C[C@H](NC(=O)NNC(=O)[C@H](Cc1ccccc1)NC(=O)[C@@H](NC(=O)[C@H](CC(N)=O)NC(=O)[C@H](Cc1ccc2ccccc2c1)NC(=O)[C@@H](Cc1ccc(O)cc1)NC(=O)CCCCCNC(=O)CN1CCN(CC(=O)O)CCN(CC(=O)O)CCN(CC(=O)O)CC1)[C@@H](C)O)C(=O)NC1(C(=O)N[C@@H](Cc2ccncc2)C(N)=O)CCN(C(=N)N)CC1 [Compound 275] ({DOTA-Ahx}-[dY][2Nal]NTF[azaGly]L[Api(1-amidino)][4Pal]-NH2)" assay_endpoint=pKi meas_value="> 8.00"
compound="Cc1ccc(CNCC(=O)N2CCC(NC(=O)[C@H](CC(C)C)NC(=O)NNC(=O)c3ccc(-c4ccccc4OCCCNC(=O)CCCCCNC(=O)CN4CCN(CC(=O)O)CCN(CC(=O)O)CCN(CC(=O)O)CC4)cc3)(C(=O)N[C@@H](Cc3c[nH]c4ccccc34)C(N)=O)CC2)cc1F [Compound 297] ({DOTA-Ahx}-[X4][azaGly]L[Api](Gly(N-(3-F-4-Me-benzyl)))W-NH2)" assay_endpoint=pKi meas_value="> 8.00"

Now turn to the next compound.
Suppose we examine the compound Cc1ccc(CNCC(=O)N2CCC(NC(=O)[C@H](CC(C)C)NC(=O)NNC(=O)[C@H](Cc3ccccc3)NC(=O)[C@@H](NC(=O)[C@H](CC(N)=O)NC(=O)c3ccc(CNC(=O)[C@H](Cc4ccc(O)cc4)NC(=O)CNC(=O)CN4CCN(CC(=O)O)CCN(CC(=O)O)CCN(CC(=O)O)CC4)cc3)[C@@H](C)O)(C(=O)N[C@@H](Cc3c[nH]c4ccccc34)C(N)=O)CC2)cc1F [Compound 213] ({DOTA}-GY[4Amb]NTF[azaGly]L[Api](Gly(N-(3-F-4-Me-benzyl)))W-NH2) ; what pKi value has been reported?
> 8.00
